Parameter Ki: see the listing below.
biological target: human vasopressin V1a receptor (Homo sapiens, UniProt P37288); test: Human vasopressin V1a receptor binding assay; settings: 1321N1 cell membranes, [3H]vasopressin; read-out: Ki (nM) on hV1a cell line
Sequence (P37288 whole entry): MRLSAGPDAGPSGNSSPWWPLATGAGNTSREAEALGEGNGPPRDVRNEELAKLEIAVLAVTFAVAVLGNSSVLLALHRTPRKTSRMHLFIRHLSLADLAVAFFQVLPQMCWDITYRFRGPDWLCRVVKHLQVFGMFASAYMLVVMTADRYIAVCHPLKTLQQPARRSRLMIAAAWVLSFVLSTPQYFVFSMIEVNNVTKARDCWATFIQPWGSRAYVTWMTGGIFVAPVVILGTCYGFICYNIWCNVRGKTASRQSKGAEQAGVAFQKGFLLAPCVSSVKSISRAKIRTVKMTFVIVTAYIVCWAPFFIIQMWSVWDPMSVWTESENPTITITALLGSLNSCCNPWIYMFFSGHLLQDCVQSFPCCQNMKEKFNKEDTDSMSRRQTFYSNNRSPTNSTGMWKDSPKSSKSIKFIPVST
result_type: Ki (nM)

1. Clc1ccc2c(c1)CC1(Cc3nnc([C@H]4CC[C@H](N5CCOCC5)CC4)n3-2)OCCO1: 0.5
2. CN(C)CC(=O)NC1Cc2cc(Cl)ccc2-n2c(nnc2[C@H]2CC[C@H](Oc3ccccn3)CC2)C1 (some centres unmarked): 2.1
3. CC(C)N1CC[C@]2(CC[C@@H](c3nnc4n3-c3ccc(Cl)cc3CC(O)C4)CC2)C1=O (some centres unmarked): 0.7
4. COC1Cc2cc(Cl)ccc2-n2c(nnc2[C@H]2CC[C@@](OC)(C(F)(F)F)CC2)C1 (some centres unmarked): 1.6
5. Clc1ccc2c(c1)CC(NC1CCC1)Cc1nnc([C@H]3CC[C@H](Oc4ccccn4)CC3)n1-2 (some centres unmarked): 1.1

---

molecular target: human vasopressin V1a receptor (Homo sapiens); test: Human vasopressin V1a receptor binding assay; conditions: 1321N1 cell membranes, [3H]vasopressin; read-out: Ki (nM) on hV1a cell line
Hi! Just check whether Ki is below 0.5 nM. Below gives label 1, equal or above gives label 0.

1. O=C1Cc2cc(C(F)(F)F)ccc2-n2c(nnc2[C@H]2CC[C@H](Oc3ccccn3)CC2)C1: label 0
2. CCO[C@]1(CC)CC[C@@H](c2nnc3n2-c2ccc(Cl)cc2CC2(C3)OCCO2)CC1: label 1
3. OC1Cc2cc(F)ccc2-n2c(nnc2[C@H]2CC[C@H](Oc3ccccn3)CC2)C1 (stereo partly drawn): label 1
4. NC1Cc2cc(Br)ccc2-n2c(nnc2[C@H]2CC[C@H](C(F)(F)F)CC2)C1 (stereo partly drawn): label 0
5. Clc1ccc2c(c1)C[C@@H](N1CCOCC1)Cc1nnc([C@H]3CC[C@H](Oc4ccccn4)CC3)n1-2: label 1
6. CC(C)N[C@@H]1Cc2cc(Cl)ccc2-n2c(nnc2[C@H]2CC[C@H](Oc3ccccn3)CC2)C1: label 0
7. CC(C)[C@@H](N)C(=O)N[C@@H]1Cc2cc(Cl)ccc2-n2c(nnc2[C@H]2CC[C@H](Oc3ccccn3)CC2)C1: label 0
8. COC1Cc2cc(Cl)ccc2-n2c(nnc2[C@H]2CC[C@H](C(F)(F)F)CC2)C1 (mixture of isomers): label 0

---

This listing pairs molecules with measured log10(IC50).
target: human vasopressin V1a receptor (Homo sapiens); assay: Functional assay on human vasopressin V1a receptor expressing cell line (intracellular Ca2+ fluorescence); type: cell-based; settings: 1321N1 cells, (Arg8)-vasopressin at EC80; read-out: IC50 (nM) on hV1a cell line
result_type: log10(IC50) (log10 of the value in nM)

1. O=C(N[C@H]1Cc2cc(Cl)ccc2-n2c(nnc2[C@H]2CC[C@H](Oc3ccccn3)CC2)C1)C1CCC(F)(F)CC1: 2.83
2. Clc1ccc2c(c1)CC1(Cc3nnc([C@H]4CC[C@H](Nc5ccccn5)CC4)n3-2)OCCO1: -0.05
3. CC[C@]1(OC)CC[C@@H](c2nnc3n2-c2ccc(Cl)cc2CC2(C3)OCCO2)CC1: 0.49
4. N#Cc1ccc2c(c1)CC1(Cc3nnc([C@H]4CC[C@H](C(F)(F)F)CC4)n3-2)OCCO1: 1.86
5. O=C(N[C@@H]1Cc2cc(Cl)ccc2-n2c(nnc2[C@H]2CC[C@H](Oc3ccccn3)CC2)C1)C1CCOCC1: 0.61
6. O=C1Cc2cc(Br)ccc2-n2c(nnc2[C@H]2CC[C@H](C(=O)N3CCCCC3)CC2)C1: 1.76
7. COC1Cc2cc(Cl)ccc2-n2c(nnc2C2CCN([C@@H]3CCOC3)CC2)C1 (stereo partly drawn): 1.28
8. Clc1ccc2c(c1)CC1(Cc3nnc([C@H]4CC[C@H](Oc5ccccn5)CC4)n3-2)OCCCO1: -0.05
9. Clc1ccc2c(c1)CC1(Cc3nnc([C@H]4CCN(Cc5ccccn5)C4)n3-2)OCCO1: 0.91
10. CN(C)[C@@H]1Cc2cc(Cl)ccc2-n2c(nnc2[C@H]2CC[C@H](Oc3ccccn3)CC2)C1: 0.11
11. CS(=O)(=O)CCOC1Cc2cc(Cl)ccc2-n2c(nnc2[C@H]2CC[C@H](Oc3ccccn3)CC2)C1 (stereo partly drawn): 0.62
12. CC1(C(=O)N[C@H]2Cc3cc(Cl)ccc3-n3c(nnc3[C@H]3CC[C@H](Oc4ccccn4)CC3)C2)COC1: 2.93
13. CCC(C)C(=O)N[C@H]1Cc2cc(Cl)ccc2-n2c(nnc2[C@H]2CC[C@H](Oc3ccccn3)CC2)C1 (stereo partly drawn): 2.87
14. COC1Cc2cc(Cl)ccc2-n2c(nnc2[C@H]2CC[C@@H](N3CCCC3=O)CC2)C1 (stereo partly drawn): 3.10
15. OC1Cc2cc(Br)ccc2-n2c(nnc2[C@H]2CC[C@H](Oc3ccccn3)CC2)C1 (stereo partly drawn): 0.00
16. O=C(N[C@H]1Cc2cc(Cl)ccc2-n2c(nnc2[C@H]2CC[C@H](Oc3ccccn3)CC2)C1)C(F)(F)F: 1.28
17. COC1Cc2cc(Cl)ccc2-n2c(nnc2[C@H]2CC[C@](OC)(C(F)(F)F)CC2)C1 (stereo partly drawn): 1.60
18. CO[C@@H]1Cc2cc(Cl)ccc2-n2c(nnc2[C@H]2CC[C@H](Oc3ccccn3)CC2)C1 (single isomer, unassigned): -0.22
19. COC1Cc2cc(Cl)ccc2-n2c(nnc2[C@@H]2CCN(Cc3ccccn3)C2)C1 (stereo partly drawn): 1.34
20. COc1ccc(CN(C)[C@H]2CC[C@H](c3nnc4n3-c3ccc(Cl)cc3CC3(C4)OCCO3)CC2)cc1: 1.08
21. Clc1ccc2c(c1)C[C@H](N1CCOCC1)Cc1nnc([C@H]3CC[C@H](Oc4ccccn4)CC3)n1-2: 1.15
